src = patent US20220306762A1

test.system: T1, His-tagged mouse CD38 (ACRO Biosystems CD8-M5223) (mouse, UniProt P56528 45-304)
T1 construct: bought protein; used for ELISA coating and as SPR analyte; also called Murine; not shown: His tag
T1 sequence (looked up): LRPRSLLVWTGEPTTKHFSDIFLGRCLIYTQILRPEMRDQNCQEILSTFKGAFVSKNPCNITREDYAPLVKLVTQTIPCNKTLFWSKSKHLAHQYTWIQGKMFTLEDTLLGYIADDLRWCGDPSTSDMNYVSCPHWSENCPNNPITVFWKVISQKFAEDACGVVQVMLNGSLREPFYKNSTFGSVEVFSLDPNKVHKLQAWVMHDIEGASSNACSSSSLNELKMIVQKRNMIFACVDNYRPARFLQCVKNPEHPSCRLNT
run.description: SPR (second run), His-tagged CD38
pKd: −log10 of the molar value.
criterion met means recorded pKd is 8 or above; criterion not met means it is below 8.

Lookup: Check the entry 40596p1.A5 (scFv, V domains shown) VH: EVQLLESGGGLVQPGGSLRLSCAASGFDFSNNAMSWVRQAPGKGLEYVAGSGWSGSFIFYADSVKGRFTVSRDNSENTLYLQMNSLRAEDTAVYYCAKNPGFGEMDVWGQGTTVTVSS VL: EIVLTQSPGSLSLSPGERATLRCRASQSIGSNLAWYQQKPGQAPSLLIYGASTRAADIPDRFSGSGSGTEFTLTITSLQSEDFAVYYCQQYNSWPPLTFGGGTKVEIK : does pKd equal or exceed 8?
Found: criterion not met

Lookup: Check the entry 40617p1.2.B4 (scFv, V domains shown) VH: EVQLLESGGGFVQPGGSLRLSCAASGFTFTNYVMNWVRQAPGKGLEWVSSISISGGRYTWYADSVKGRFTISRDNSRNTLYLQMNSLRAEDTAIYYCAREMNTYSFPMDVWGQGTTVTVSS VL: EIVLTQSPGTLSLSPGERATLNCRASQNVRSDLAWYQQKPGQAPRLLIYDASNRATGIPDRFSGSGSGTDFSLTISRLEPEDFAVYYCQQYYDWPPYTFGGGTKVEIK : does pKd equal or exceed 8?
Found: criterion met

Lookup: Check the entry 40596p1.E4 (scFv, V domains shown) VH: EVQLLESGGGLVQPGGSLRLSCAASGFDFSGSAMSWVRQAPGKGLEYVAGLGWSGSFIYYADSVKGRSTISRDNSKNTLYLQLNSLRAEDTAVYYCARNPGFGEMDVWGQGTTVTVSS VL: EIVLTQSPGSLSLSPGERATLSCRASQTVGSNLAWYQQKPGQAPRLLIYGASTRATDIPDRFSGSGSGTEFTLTISSLQSEDFAVYYCQQYNSWPPLTFGGGTKVEIK : does pKd equal or exceed 8?
Found: criterion not met

Lookup: Check the entry 40769p1.1.B12 (scFv, V domains shown) VH: EVQLLESGGGLIQPGGSLRLSCTASGFDFSSYGMHWVRQAPGKGLEWVGIISDSGGTTYYADSVKGRFTISRDNSKNTMYLQMNSLRAEDTALYYCASYIMDVWGQGITVTVSS VL: QSVLTQPPSASGTPGQRVTISCSGSSSNVGGNSVYWYQQLPGTAPKLLFYGNHRRPSGVPDRFSGSKSGTSASLAISGLQSEDEADYYCAVWDDSLNAWVFGGGTKLTVL : does pKd equal or exceed 8?
Found: criterion not met

Lookup: Check the entry 40769p1.2.B10 (scFv, V domains shown) VH: EVQLLESGGGLVQPGGSLRLSCPASGFDFSSYWMTWVRQAPGKGLEWVSTITDSGGRAWYADSVRGRFTISRDNSKNTLYLQMNSLRAEDTAVYYCARDTPKTYYYYAMDVWGQGTTVTV VL: QSALTQPPSASGTPGQRVTISCSGSSSNIQYSYVSWYQQLPGTAPKLLIYNNVQRPSGVPDRFSGSKSGTSASLAISGLQSEDEADYYCATWDESLLGLWVFGGGTKLTVL : does pKd equal or exceed 8?
Found: criterion not met
